This section lists IC50 readings for enkephalinase (Rattus norvegicus, UniProt P07861).

1. O=C(O)CCCNC(=O)[C@@H](Cc1ccccc1)C[C@H](Cc1ccccc1)C(=O)O (relative stereo): ~20 nM

Could you now consider this next molecule?
For O=C(O)CCNC(=O)[C@H](Cc1ccccc1)C[C@@H](Cc1ccccc1)C(=O)O on enkephalinase (Rattus norvegicus, UniProt P07861), measured IC50 was ~8 nM
